- test: HILIC, Waters ACQUITY UPLC BEH HILIC, 150 × 2.1 mm, 1.7 µm, 40 °C, 0.6 mL/min, estimated dead time 0.55 min; A: water + 0.1% formic acid + 20 mM ammonium formate, pH 3.5; B: acetonitrile + 0.1% formic acid, pH 3; gradient (min/%B) 0/95 0.1/95 4.6/80 5.5/50 7.0/50 7.1/95 7.2/95 7.3/95 7.4/95 7.5/95 7.6/95 7.7/95 7.8/95 12.50/95 12.65/95
- experimental parameters: stereoisomer not certain
quantity: LC retention time (min)

[[record]]
compound = "CC(CCC(=O)NCC(=O)O)C1CCC2C3CCC4CC(O)CCC4(C)C3CCC12C (stereo not given)"
unit_abbrev = "min"
recorded_result = 1.22

[[record]]
compound = "CC(=O)CC(c1ccccc1)c1c(O)c2ccccc2oc1=O (stereo not given)"
unit_abbrev = "min"
recorded_result = 0.673


a. CCCC(=O)OC(CC(=O)[O-])C[N+](C)(C)C (stereo not given)
b. CC(CCC(=O)NCCS(=O)(=O)O)C1CCC2C3C(O)CC4CC(O)CCC4(C)C3CC(O)C12C (stereo not given)
Query: Hey, which is lower on measured LC retention time, a or b ? Record your answer as the label of the chosen record.
Reply: b
(b: 2.47 min, a: 4.69 min)

1. NC(N)=NCCCC(N)C(=O)O (stereo not given)
2. CCCCCCCCCCCCCC(=O)OC(CC(=O)[O-])C[N+](C)(C)C (stereo not given)
3. Cn1c[n+](C2OC(CO)C(O)C2O)c2nc(N)[nH]c(=O)c21 (stereo not given)
4. CSCC1OC(n2cnc3c(N)ncnc32)C(O)C1O (stereo not given)
Query: Order the 4 compounds from highest to lowest LC retention time. Please respond by ranking the labels in the order requested.
Reply: 1, 2, 3, 4

I. CN(C)CC(=O)O
II. NCCS(=O)(=O)O
Query: For the two items I and II , which reports the higher LC retention time value? Please reply using the label of the selected record.
Reply: I

1. CC(N)C(=O)O (stereo not given)
2. Cn1ccc(=O)c(C(N)=O)c1 [N1-methyl-4-pyridone-3-carboxamide]
Query: Could you please tell me which of these two has the higher LC retention time: 1 or 2 ? Give the chosen item's label as your response.
Reply: 1
(1: 4.57 min, 2: 1.5 min)

---

- test: HILIC, Waters ACQUITY UPLC BEH HILIC, 150 × 2.1 mm, 1.7 µm, 40 °C, 0.6 mL/min, estimated dead time 0.55 min; A: water + 0.1% formic acid + 20 mM ammonium formate, pH 3.5; B: acetonitrile + 0.1% formic acid, pH 3; gradient (min/%B) 0/95 0.1/95 4.6/80 5.5/50 7.0/50 7.1/95 7.2/95 7.3/95 7.4/95 7.5/95 7.6/95 7.7/95 7.8/95 12.50/95 12.65/95
- experimental parameters: stereoisomer not certain
quantity: LC retention time (min)

Solved cases (2 shown):
[[record]]
molecule = "NC(Cc1c[nH]c2ccccc12)C(=O)O (stereo unspecified) [Tryptophan]"
recorded_result = 3.82

[[record]]
molecule = "NCCCCC(N)C(=O)O (stereo unspecified) [Lysine]"
recorded_result = 5.98


I. CN1C(=O)CCC1c1ccc[n+]([O-])c1 (stereo unspecified) [Cotinine N-oxide]
II. CC(CCC(=O)NCC(=O)O)C1CCC2C3CCC4CC(O)CCC4(C)C3CC(O)C12C (stereo unspecified) [Glycodeoxycholic acid]
Query: Form field 'greater LC retention time' accepts I or II ; which applies? Lab log: write the label of the selected item as the result.
Reply: I

---

- test: HILIC, Waters ACQUITY UPLC BEH HILIC, 150 × 2.1 mm, 1.7 µm, 40 °C, 0.6 mL/min, estimated dead time 0.55 min; A: water + 0.1% formic acid + 20 mM ammonium formate, pH 3.5; B: acetonitrile + 0.1% formic acid, pH 3; gradient (min/%B) 0/95 0.1/95 4.6/80 5.5/50 7.0/50 7.1/95 7.2/95 7.3/95 7.4/95 7.5/95 7.6/95 7.7/95 7.8/95 12.50/95 12.65/95
- experimental parameters: stereoisomer not certain
quantity: LC retention time (min)

[[record]]
molecule = "Cn1c(=O)[nH]c2ncn(C)c2c1=O"
recorded_result = 0.948

[[record]]
molecule = "O=C(O)C1CCCCN1 (stereo not given)"
recorded_result = 4.48


P. CC(=O)NCCCNCCCC(=O)O
Q. NC(=O)c1ccc[n+]([O-])c1 [Nicotinamide N-oxide]
R. CC(=O)Nc1ccn(C2OC(CO)C(O)C2O)c(=O)n1 (stereo not given)
S. Cn1c(=O)c2c(ncn2C)n(C)c1=O
Query: Put these in order: smallest LC retention time first, largest last. Thanks in advance for listing the labels in the requested order.
Reply: S, R, Q, P
(S: 0.85 min, R: 1.27 min, Q: 2.02 min, P: 4.93 min)

---

- test: HILIC, Waters ACQUITY UPLC BEH HILIC, 150 × 2.1 mm, 1.7 µm, 40 °C, 0.6 mL/min, estimated dead time 0.55 min; A: water + 0.1% formic acid + 20 mM ammonium formate, pH 3.5; B: acetonitrile + 0.1% formic acid, pH 3; gradient (min/%B) 0/95 0.1/95 4.6/80 5.5/50 7.0/50 7.1/95 7.2/95 7.3/95 7.4/95 7.5/95 7.6/95 7.7/95 7.8/95 12.50/95 12.65/95
- experimental parameters: stereoisomer not certain
quantity: LC retention time (min)

[[record]]
compound = "Nc1ccnc(=O)[nH]1 [Cytosine]"
recorded_result = 2.39

[[record]]
compound = "C[N+](C)(C)CC(O)CC(=O)[O-] (stereo unspecified) [Carnitine]"
recorded_result = 5.32


I. CN1CCCC1c1cccnc1 (stereo unspecified) [Nicotine]
II. Cn1cncc1CC(N)C(=O)O (stereo unspecified) [3-Methylhistidine]
III. Cn1cnc2c(ncn2C2OC(CO)C(O)C2O)c1=O (stereo unspecified) [N1-Methylinosine]
Query: Arrange items by their LC retention time values in increasing order. Please respond by ranking the labels in the order requested.
Reply: III, I, II

---

- test: HILIC, Waters ACQUITY UPLC BEH HILIC, 150 × 2.1 mm, 1.7 µm, 40 °C, 0.6 mL/min, estimated dead time 0.55 min; A: water + 0.1% formic acid + 20 mM ammonium formate, pH 3.5; B: acetonitrile + 0.1% formic acid, pH 3; gradient (min/%B) 0/95 0.1/95 4.6/80 5.5/50 7.0/50 7.1/95 7.2/95 7.3/95 7.4/95 7.5/95 7.6/95 7.7/95 7.8/95 12.50/95 12.65/95
- experimental parameters: stereoisomer not certain
quantity: LC retention time (min)

[[record]]
compound = "O=C1CCC(c2cccnc2)N1 (stereo not drawn)"
recorded_result = 1.6

[[record]]
compound = "O=C(O)CCc1cnc[nH]1"
recorded_result = 3.76

[[record]]
compound = "CC(C)C(=O)OC(CC(=O)[O-])C[N+](C)(C)C (stereo not drawn)"
recorded_result = 4.69

[[record]]
compound = "CC=C(C)C(=O)OC(CC(=O)[O-])C[N+](C)(C)C (stereo not drawn)"
recorded_result = 4.54

[[record]]
compound = "Cn1cncc1CC(NC(=O)CCN)C(=O)O (stereo not drawn)"
recorded_result = 6.1

[[record]]
compound = "CC(=O)NCCCNCCCCN"
recorded_result = 5.99

[[record]]
compound = "CN(C)C(N)=NCCC[C@H](N)C(=O)O"
recorded_result = 5.91

[[record]]
compound = "CC(=O)NCCCC[C@H](N)C(=O)O"
recorded_result = 5.44

[[record]]
compound = "CC(=O)C[N+](C)(C)C"
recorded_result = 3.51

[[record]]
compound = "CCC(C)C(=O)OC(CC(=O)[O-])C[N+](C)(C)C (stereo not drawn)"
recorded_result = 4.39

[[record]]
compound = "C[N+](C)(C)[O-] [Trimethylamine N-oxide]"
recorded_result = 4.18

[[record]]
compound = "CC(=O)NC(CCCCN)C(=O)O (stereo not drawn)"
recorded_result = 5.44

[[record]]
compound = "CCCCC(=O)OC(CC(=O)[O-])C[N+](C)(C)C (stereo not drawn)"
recorded_result = 4.39


---

- test: HILIC, Waters ACQUITY UPLC BEH HILIC, 150 × 2.1 mm, 1.7 µm, 40 °C, 0.6 mL/min, estimated dead time 0.55 min; A: water + 0.1% formic acid + 20 mM ammonium formate, pH 3.5; B: acetonitrile + 0.1% formic acid, pH 3; gradient (min/%B) 0/95 0.1/95 4.6/80 5.5/50 7.0/50 7.1/95 7.2/95 7.3/95 7.4/95 7.5/95 7.6/95 7.7/95 7.8/95 12.50/95 12.65/95
- experimental parameters: stereoisomer not certain
quantity: LC retention time (min)

Example results:
[[record]]
molecule = "CN(C)C(=N)N=C(N)N [1,1-Dimethylbiguanide (Metformin)]"
recorded_result = 3.42

[[record]]
molecule = "NCCc1c[nH]c2ccccc12 [Tryptamine]"
recorded_result = 2.79

[[record]]
molecule = "CN1CCCCC1C(=O)O (stereo not drawn)"
recorded_result = 4.59

[[record]]
molecule = "O=c1[nH]cc(C2OC(CO)C(O)C2O)c(=O)[nH]1 (stereo not drawn) [Pseudouridine]"
recorded_result = 1.25


1. NC(N)=NCCCCC(N)C(=O)O (stereo not drawn) [Homoarginine]
2. CSCCC(N)C(=O)O (stereo not drawn) [Methionine]
Query: Task for the reader: decide whether 1 or 2 has the larger LC retention time. # reply format: chosen label
Reply: 1
(1: 5.92 min, 2: 4.11 min)
